- Assayed System: Delta-type opioid receptor (Homo sapiens)
- Sequence (P41143 whole entry): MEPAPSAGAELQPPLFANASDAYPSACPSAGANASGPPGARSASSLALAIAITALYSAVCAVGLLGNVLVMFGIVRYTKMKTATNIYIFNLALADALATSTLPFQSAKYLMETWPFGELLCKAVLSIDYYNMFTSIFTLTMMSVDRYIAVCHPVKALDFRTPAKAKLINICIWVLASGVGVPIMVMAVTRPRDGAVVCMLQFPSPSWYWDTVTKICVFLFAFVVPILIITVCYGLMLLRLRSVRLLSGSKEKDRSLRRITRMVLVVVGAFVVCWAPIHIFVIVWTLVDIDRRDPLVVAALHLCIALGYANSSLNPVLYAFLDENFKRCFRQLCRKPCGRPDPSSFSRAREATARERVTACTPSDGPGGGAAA
- Test Name: Displacement of [3H]DPDPE from human delta opioid receptor expressed in HN9.10 cells

Record Smiles: CCCC[C@H](NC(=O)[C@H](Cc1c[nH]c2ccccc12)NC(=O)CNC(=O)[C@@H](Cc1ccccc1)NC(=O)[C@@H](N)Cc1ccc(O)cc1)C(=O)N[C@@H](CC(=O)O)C(=O)N[C@@H](Cc1ccccc1)C(N)=O
Ki (nM): 0.2
--
Record Smiles: CCCC[C@@H](NC(=O)[C@@H](N)Cc1ccc(O)cc1)C(=O)NCC(=O)N[C@@H](Cc1c[nH]c2ccccc12)C(=O)N(C)[C@@H](CCCC)C(=O)N[C@@H](CC(=O)O)C(=O)N[C@@H](Cc1ccccc1)C(N)=O
Ki (nM): 2
--
Record Smiles: CCCC[C@@H](C(=O)N[C@@H](CC(=O)O)C(=O)N[C@@H](Cc1ccccc1)C(N)=O)N(C)C(=O)[C@@H](Cc1c[nH]c2ccccc12)NC(=O)CNC(=O)[C@@H](Cc1ccccc1)NC(=O)[C@@H](N)Cc1ccc(O)cc1
Ki (nM): 0.42
